Measured C3.1 score, listed per entry.
Molecular target: Aurora-A (h) (Homo sapiens, UniProt O14965)
Sequence (O14965 whole entry): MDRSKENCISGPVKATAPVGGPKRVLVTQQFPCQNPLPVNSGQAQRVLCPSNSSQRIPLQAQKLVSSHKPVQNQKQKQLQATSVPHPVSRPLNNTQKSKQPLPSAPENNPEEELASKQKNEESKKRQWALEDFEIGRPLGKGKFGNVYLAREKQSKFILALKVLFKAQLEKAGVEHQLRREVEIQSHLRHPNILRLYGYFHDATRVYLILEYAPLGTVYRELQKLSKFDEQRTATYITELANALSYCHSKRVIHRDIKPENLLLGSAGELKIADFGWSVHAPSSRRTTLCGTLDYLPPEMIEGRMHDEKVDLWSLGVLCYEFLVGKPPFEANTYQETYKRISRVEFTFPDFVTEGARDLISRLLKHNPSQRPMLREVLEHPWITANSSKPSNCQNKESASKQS
Assay: Kinase profiling C3.1 Aurora-A human
Assay type: biochemical
Conditions: test concentration of 10^−6 M

Example entries and their recorded answers appear below.
[
  {
    "Molecule": "O=C1CNCc2cccc(c2)Nc2ncnc(n2)-c2cncc(c2)CCCN1 [Compound 83]",
    "System": "Aurora-A (h) (Homo sapiens, UniProt O14965)",
    "C3.1 score": "2 (Score 2 = 30-60% inhibition)"
  },
  {
    "Molecule": "O=C1NCCCc2cc(ccn2)-c2ncnc(n2)Nc2cccc(c2)CN2CCCC12 (stereo not drawn) [Compound 12]",
    "System": "Aurora-A (h) (Homo sapiens, UniProt O14965)",
    "C3.1 score": "1 (Score 1 = 10-30% inhibition)"
  },
  {
    "Molecule": "CN1CCCc2cc(ccn2)-c2ncnc(n2)Nc2cccc(c2)CNC(=O)C1 [Compound 7]",
    "System": "Aurora-A (h) (Homo sapiens, UniProt O14965)",
    "C3.1 score": "1 (Score 1 = 10-30% inhibition)"
  },
  {
    "Molecule": "CN1CC(=O)NCC#Cc2cc(ccn2)-c2ncnc(n2)Nc2cccc(c2)C1 [Compound 1]",
    "System": "Aurora-A (h) (Homo sapiens, UniProt O14965)",
    "C3.1 score": "1 (Score 1 = 10-30% inhibition)"
  },
  {
    "Molecule": "O=C1CN2CCN(CC2)Cc2cccc(c2)Nc2ncnc(n2)-c2ccnc(c2)CCCN1 [Compound 36]",
    "System": "Aurora-A (h) (Homo sapiens, UniProt O14965)",
    "C3.1 score": "1 (Score 1 = 10-30% inhibition)"
  }
]

For the molecule shown here, CN1CCC(=O)NCCCc2cc(ccn2)-c2ncnc(n2)Nc2cccc(c2)C1 [Compound 3] , give the reported C3.1 score. 1 (Score 1 = 10-30% inhibition)

What C3.1 score value was documented for this molecule, CN1CC(=O)NCCCc2cc(ccn2)-c2ncnc(n2)Nc2cccc(c2)C1 [Compound 10] ? 1 (Score 1 = 10-30% inhibition)

Find the recorded C3.1 score belonging to CN1CCN(CCN2CCC(=O)NCCCc3cc(ccn3)-c3ncnc(n3)Nc3cccc(c3)C2)CC1 [Compound 11] and report it. 1 (Score 1 = 10-30% inhibition)

What value of measured C3.1 score is listed for CN1CC(=O)NC/C(Cl)=C/c2cc(ccn2)-c2ncnc(n2)Nc2cccc(c2)C1 [Compound 2] ? 2 (Score 2 = 30-60% inhibition)

Form field: reported C3.1 score of CN1CCCC(=O)NCCCc2cc(ccn2)-c2ncnc(n2)Nc2cccc(c2)C1 [Compound 13] 2 (Score 2 = 30-60% inhibition)

I have this molecule here, O=C1NCCCc2cncc(c2)-c2ncnc(n2)Nc2cccc(c2)CN[C@H]1CO [Compound 81] , and I need its recorded C3.1 score. 1 (Score 1 = 10-30% inhibition)

I would be grateful if you could share the reported C3.1 score for O=C1CCN2CCN(CC2)Cc2cccc(c2)Nc2ncnc(n2)-c2ccnc(c2)CCCN1 [Compound 35] . 1 (Score 1 = 10-30% inhibition)

Fill blank: measured C3.1 score of the molecule O=C1NCCCc2cc(ccn2)-c2ncnc(n2)Nc2cccc(c2)CN2CCCC1C2 (stereo not drawn) [Compound 15] is ____. 1 (Score 1 = 10-30% inhibition)

Endpoint output: C3.1 score of O=C1NCCCc2cc(ccc2F)-c2ncnc(n2)Nc2cc(Cl)cc(c2)CN[C@H]1CO [Compound 71] . Value? 2 (Score 2 = 30-60% inhibition)

Can you share its C3.1 score? I mean this molecule: O=C1NCCCc2cc(ccn2)-c2ncnc(n2)Nc2cccc(c2)CN2C[C@H](O)C[C@@H]12 [Compound 14] 2 (Score 2 = 30-60% inhibition)

* * *

Target: cSRC (h) (Homo sapiens)
Sequence (P12931 whole entry): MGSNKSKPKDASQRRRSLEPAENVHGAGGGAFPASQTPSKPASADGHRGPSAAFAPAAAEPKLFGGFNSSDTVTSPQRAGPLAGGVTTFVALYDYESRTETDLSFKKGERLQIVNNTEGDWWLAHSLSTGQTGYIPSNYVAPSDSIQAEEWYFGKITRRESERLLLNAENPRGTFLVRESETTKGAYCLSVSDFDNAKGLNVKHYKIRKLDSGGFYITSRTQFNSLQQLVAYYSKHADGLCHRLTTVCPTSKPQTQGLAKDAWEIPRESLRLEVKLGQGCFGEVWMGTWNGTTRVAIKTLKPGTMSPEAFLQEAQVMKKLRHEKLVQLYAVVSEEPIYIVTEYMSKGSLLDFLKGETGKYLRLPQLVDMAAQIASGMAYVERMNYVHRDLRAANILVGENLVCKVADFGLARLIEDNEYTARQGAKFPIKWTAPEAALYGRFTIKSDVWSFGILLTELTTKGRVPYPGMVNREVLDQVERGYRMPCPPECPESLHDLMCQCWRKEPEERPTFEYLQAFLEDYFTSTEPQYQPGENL
Experiment: Kinase profiling C3.9 cSRC human
Assay type: biochemical
Conditions: test concentration of 10^−6 M
Below: a set of entries, each annotated with reported C3.9 score.

[
  {
    "Molecule": "O=C1NCCCc2cncc(c2)-c2ncnc(n2)Nc2cccc(c2)CN[C@H]1CO",
    "Value observed": "1 (Score 1 = 10-30% inhibition)"
  },
  {
    "Molecule": "O=C1CCN2CCN(CC2)Cc2cccc(c2)Nc2ncnc(n2)-c2ccnc(c2)CCCN1",
    "Value observed": "2 (Score 2 = 30-60% inhibition)"
  },
  {
    "Molecule": "O=C1CNCc2cccc(c2)Nc2ncnc(n2)-c2cncc(c2)CCCN1",
    "Value observed": "2 (Score 2 = 30-60% inhibition)"
  },
  {
    "Molecule": "O=C1NCCCc2cc(ccn2)-c2ncnc(n2)Nc2cccc(c2)CN2CCCC12 (stereo not drawn)",
    "Value observed": "2 (Score 2 = 30-60% inhibition)"
  },
  {
    "Molecule": "CN1CC(=O)NCCCc2cc(ccn2)-c2ncnc(n2)Nc2cccc(c2)C1",
    "Value observed": "2 (Score 2 = 30-60% inhibition)"
  },
  {
    "Molecule": "CN1CCCc2cc(ccn2)-c2ncnc(n2)Nc2cccc(c2)CNC(=O)C1",
    "Value observed": "2 (Score 2 = 30-60% inhibition)"
  },
  {
    "Molecule": "CN1CC(=O)NCC#Cc2cc(ccn2)-c2ncnc(n2)Nc2cccc(c2)C1",
    "Value observed": "3 (Score 3 = 60-80% inhibition)"
  },
  {
    "Molecule": "CN1CCCC(=O)NCCCc2cc(ccn2)-c2ncnc(n2)Nc2cccc(c2)C1",
    "Value observed": "2 (Score 2 = 30-60% inhibition)"
  }
]

Now consider a different molecule.
Lab request: please report C3.9 score under test system cSRC (h) (Homo sapiens) for O=C1NCCCc2cc(ccn2)-c2ncnc(n2)Nc2cccc(c2)CN2CCCC1C2 (stereo not drawn) 1 (Score 1 = 10-30% inhibition)

* * *

Biological target: CDK7/cyclinH/MAT1 (h) (Homo sapiens)
Sequence (P50613 whole entry): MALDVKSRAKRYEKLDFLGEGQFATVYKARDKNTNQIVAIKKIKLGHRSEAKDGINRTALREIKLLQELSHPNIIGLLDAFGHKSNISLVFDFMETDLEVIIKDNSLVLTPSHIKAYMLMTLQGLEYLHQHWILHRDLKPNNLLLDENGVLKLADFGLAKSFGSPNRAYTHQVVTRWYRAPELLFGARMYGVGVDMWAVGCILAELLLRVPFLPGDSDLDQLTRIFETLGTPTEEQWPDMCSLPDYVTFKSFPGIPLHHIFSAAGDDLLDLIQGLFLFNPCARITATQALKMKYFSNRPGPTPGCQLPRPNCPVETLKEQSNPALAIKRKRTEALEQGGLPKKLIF
Sequence (P51946 whole entry partner): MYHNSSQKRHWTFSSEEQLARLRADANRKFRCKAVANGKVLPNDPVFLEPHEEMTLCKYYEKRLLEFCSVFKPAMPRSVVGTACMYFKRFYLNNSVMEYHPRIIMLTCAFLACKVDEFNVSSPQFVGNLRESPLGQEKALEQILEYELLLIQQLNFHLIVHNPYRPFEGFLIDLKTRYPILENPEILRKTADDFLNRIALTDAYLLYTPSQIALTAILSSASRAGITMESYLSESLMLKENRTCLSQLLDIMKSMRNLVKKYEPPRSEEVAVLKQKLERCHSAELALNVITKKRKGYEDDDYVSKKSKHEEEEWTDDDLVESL
Sequence (P51948 whole entry partner): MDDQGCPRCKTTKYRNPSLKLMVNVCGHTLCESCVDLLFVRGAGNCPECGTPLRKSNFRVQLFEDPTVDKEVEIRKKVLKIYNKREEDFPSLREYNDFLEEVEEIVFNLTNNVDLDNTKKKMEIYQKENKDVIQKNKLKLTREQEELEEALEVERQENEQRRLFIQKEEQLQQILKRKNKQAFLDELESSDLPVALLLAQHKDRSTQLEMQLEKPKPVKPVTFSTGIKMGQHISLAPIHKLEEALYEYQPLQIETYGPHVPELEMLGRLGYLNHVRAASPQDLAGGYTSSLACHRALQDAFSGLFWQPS
Assay: Kinase profiling C3.8 CDK7/cyclinH/MAT1 human
Assay type: biochemical
Settings: CDK7/cyclinH/MAT1, test concentration of 10^−6 M
Quantity kind: C3.8 score

See these solved cases before continuing.
[
  {
    "Compound": "O=C1CN2CCN(CC2)Cc2cccc(c2)Nc2ncnc(n2)-c2ccnc(c2)CCCN1 [Compound 36]",
    "Value observed": "2 (Score 2 = 30-60% inhibition)"
  },
  {
    "Compound": "O=C1CN2CCN(CC2)Cc2cccc(c2)Nc2ncnc(n2)-c2cccc(c2)CCCN1",
    "Value observed": "1 (Score 1 = 10-30% inhibition)"
  },
  {
    "Compound": "CN1CCC(=O)NCCCc2cc(ccn2)-c2ncnc(n2)Nc2cc(Cl)cc(c2)C1",
    "Value observed": "2 (Score 2 = 30-60% inhibition)"
  },
  {
    "Compound": "CN1CCC(=O)NCCCc2cc(ccn2)-c2ncnc(n2)Nc2cccc(c2)C1",
    "Value observed": "4 (Score 4 = >80% inhibition)"
  },
  {
    "Compound": "O=C1CCN2CCN(CC2)Cc2cccc(c2)Nc2ncnc(n2)-c2ccnc(c2)NCCN1",
    "Value observed": "2 (Score 2 = 30-60% inhibition)"
  }
]

Lookup: C3.8 score / CDK7/cyclinH/MAT1 (h) (Homo sapiens) / O=C1CCN2CCN(CC2)Cc2cc(Cl)cc(c2)Nc2ncnc(n2)-c2ccnc(c2)CCCN1 3 (Score 3 = 60-80% inhibition)

Hi! What's the reported C3.8 score for CN1CCCC(=O)NCCc2cccc(c2)Nc2ncnc(n2)-c2ccnc(c2)CCC1 on CDK7/cyclinH/MAT1 (h) (Homo sapiens)? 3 (Score 3 = 60-80% inhibition)

// lookup C3.8 score | system=CDK7/cyclinH/MAT1 (h) (Homo sapiens) | key= O=C1NCCc2cccc(c2)Nc2ncnc(n2)-c2ccnc(c2)CCCN2CCCC1C2 (centres unmarked) 2 (Score 2 = 30-60% inhibition)

* * *

Target: Yes (h) (Homo sapiens, UniProt P07947)
Sequence (P07947 whole entry): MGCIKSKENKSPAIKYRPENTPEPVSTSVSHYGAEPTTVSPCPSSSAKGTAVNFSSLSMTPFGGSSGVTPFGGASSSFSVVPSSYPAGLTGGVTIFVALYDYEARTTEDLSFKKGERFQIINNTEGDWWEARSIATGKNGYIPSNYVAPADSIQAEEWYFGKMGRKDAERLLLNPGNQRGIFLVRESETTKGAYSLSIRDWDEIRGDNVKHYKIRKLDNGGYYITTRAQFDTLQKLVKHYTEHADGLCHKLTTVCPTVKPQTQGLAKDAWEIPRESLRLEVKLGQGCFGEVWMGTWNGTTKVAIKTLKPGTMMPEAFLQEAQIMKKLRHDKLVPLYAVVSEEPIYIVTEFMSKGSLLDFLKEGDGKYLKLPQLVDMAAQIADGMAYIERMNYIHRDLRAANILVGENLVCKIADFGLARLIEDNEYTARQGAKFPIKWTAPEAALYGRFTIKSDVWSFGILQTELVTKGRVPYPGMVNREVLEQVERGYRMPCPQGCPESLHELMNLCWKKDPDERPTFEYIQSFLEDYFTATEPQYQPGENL
Experiment: Kinase profiling C3.10 Yes human
Assay type: biochemical
Conditions: test concentration of 10^−6 M
Description: The in vitro inhibition of a panel of kinases was assessed using either the glass-fiber filter technology as described by Davies, S. P. et al., Biochem J. (2000), 351; p. 95-105. In the glass-fiber filter technology the activity of the kinase of interest is measured using an appropriate substrate that is incubated with the aforementioned kinase protein in the presence of (^33P) radiolabeled ATP. […]
The following compounds are shown together with reported C3.10 score values.

[
  {
    "Compound": "CN1CC(=O)NCCCc2cc(ccn2)-c2ncnc(n2)Nc2cccc(c2)C1",
    "C3.10 score": "2 (Score 2 = 30-60% inhibition)"
  },
  {
    "Compound": "O=C1CNCc2cccc(c2)Nc2ncnc(n2)-c2cncc(c2)CCCN1",
    "C3.10 score": "2 (Score 2 = 30-60% inhibition)"
  },
  {
    "Compound": "O=C1CCN2CCN(CC2)Cc2cccc(c2)Nc2ncnc(n2)-c2ccnc(c2)CCCN1",
    "C3.10 score": "2 (Score 2 = 30-60% inhibition)"
  },
  {
    "Compound": "CN1CCC(=O)NCCCc2cc(ccn2)-c2ncnc(n2)Nc2cccc(c2)C1",
    "C3.10 score": "2 (Score 2 = 30-60% inhibition)"
  },
  {
    "Compound": "CN1CCN(CCN2CCC(=O)NCCCc3cc(ccn3)-c3ncnc(n3)Nc3cccc(c3)C2)CC1",
    "C3.10 score": "1 (Score 1 = 10-30% inhibition)"
  },
  {
    "Compound": "O=C1NCCCc2cc(ccn2)-c2ncnc(n2)Nc2cccc(c2)CN2CCCC1C2 (stereo not shown)",
    "C3.10 score": "1 (Score 1 = 10-30% inhibition)"
  },
  {
    "Compound": "O=C1CN2CCN(CC2)Cc2cccc(c2)Nc2ncnc(n2)-c2ccc(F)c(c2)CCCN1",
    "C3.10 score": "1 (Score 1 = 10-30% inhibition)"
  },
  {
    "Compound": "CCN1CC(=O)NCCCc2cccc(c2)-c2ncnc(n2)Nc2cccc(c2)C1",
    "C3.10 score": "2 (Score 2 = 30-60% inhibition)"
  }
]

Continue with the next compound.
Please give the measured C3.10 score for this compound: O=C1NCCCc2cncc(c2)-c2ncnc(n2)Nc2cccc(c2)CN[C@H]1CO 1 (Score 1 = 10-30% inhibition)
